test system: RPMI-8226 leukemia; experiment: NCI-60 one-dose screen, 48 h; conditions: 10 µM unless noted
Compounds without any hit were thinned out: in the full panel of roughly 83,000, 20% have a hit. Activity calls are given as the source filed them. The calls were made as follows: active = growth percent below 10; inactive = the rest.
One label from this list, please: active, inactive

Reference set (3 entries):
- Cn1cc(-c2nn3cc(-c4ccccc4)nc3s2)c2ccccc21: inactive
- Cn1cc(-c2nc(-c3c[nH]c4ccncc34)cs2)c2cc(Br)ccc21: active
- CC1(C)C2CC=C(/C=N/NC(=O)C3CCC(=O)N3)C1C2 (stereo not given): inactive

Req: Recorded call for `Cc1c(Cl)cccc1C(=O)Nc1nc2c(s1)CN(C(=O)Nc1cccc(C(F)(F)F)c1)CC2` ?
Resp: active

Req: Also `COc1ccc2c(c1)c(-c1ccc(-c3cn(C)c4ccc(OC)cc34)[nH]1)cn2C` ?
Resp: active

Req: Also O=C(CN1C(=O)NC2NC(=O)NC21)N/N=C/c1ccc(Cl)cc1Cl (stereo not given) ?
Resp: inactive

###

System: BT-549 breast
Assay: NCI-60 one-dose screen, 48 h
Conditions: 10 µM unless noted
Method: Growth inhibition of the BT-549 human tumor cell line is measured as a screen for anti-cancer activity. Cells are grown in 96 well plates and exposed to the test compound for 48 hours. Compounds are tested at a single concentration, which is 10^-5 M for most compounds. The reported endpoint is percent growth (GI% or GIPRCNT), where numbers from 0 - 100% represent growth inhibition, and numbers from -100% - 0 represent cell death. For example, a value of 40 represents 60% growth inhibition. […]
Compounds without any hit were thinned out: in the full panel of roughly 83,000, 20% have a hit. The source made the active and inactive calls. The calls were made as follows: active = growth percent below 10; inactive = the rest.
One label from this list, please: active, inactive

- O=C1c2cccnc2C(=O)c2c1c(C(=O)OCCCN1CCCCC1)c1ccccn21: active
- CCN(C(=O)N1CCN(c2cc3c(cc2F)c(=O)c(C(=O)O)cn3C2CC2)CC1)c1nc(-c2ccc(C)cc2)cs1: active
- COP(=O)(OC)c1nnn(-c2cccc([N+](=O)[O-])c2)c1C: inactive
- COc1cccc2c(N=NC(=O)c3ccc(S(N)(=O)=O)cc3)c(O)[nH]c12: inactive
- CCOC(=O)C(=Cc1cccc(C#N)c1)C(=O)OCC: inactive
- CN1CCN(c2ccc(NC(=O)c3cncnc3Nc3ccc4c(ccn4Cc4cccc(F)c4)c3)cc2)CC1: inactive

Req: Recorded call for `COc1ccc(Cc2cnc(NC(=O)c3sc4ccccc4c3Cl)s2)cc1` ?
Resp: inactive

Req: Also `O=C1Nc2ccc(F)cc2/C1=C\c1nc(-c2ccccc2F)n2ccccc12` ?
Resp: inactive

###

test system: SNB-19 CNS; assay: NCI-60 one-dose screen, 48 h; settings: 10 µM unless noted
This is part of a sample that, as a whole, favours compounds with a hit. Of some 83,000 tested, about 20% had one in any assay. The source made the active and inactive calls. How the source made its calls: active means growth percent below 10; inactive means the rest.
One label from this list, please: active, inactive

Req: Recorded call for `CCN(C(=O)N1CCN(c2cc3c(cc2F)c(=O)c(C(=O)O)cn3C2CC2)CC1)c1nc(-c2ccc(C)cc2)cs1` ?
Resp: inactive

Req: Also `COc1cc(C(=O)/C=C/c2c(-c3cccs3)nc3ccccn23)cc(OC)c1OC` ?
Resp: inactive

Req: Also `COc1cc(-c2cc(-c3ccc(Nc4ncnc5cc(Cl)ccc45)cc3)nc(N3CCN(C)CC3)n2)cc(OC)c1OC` ?
Resp: inactive

Req: Also Nc1ncnc2c1c(-c1ccc(Oc3ccccc3)cc1)nn2CC1SSCC1O (stereo not given) ?
Resp: inactive

Req: Also `NS(=O)(=O)c1ccc(N/C=C/C(=O)c2cc3ccccc3oc2=O)cc1` ?
Resp: inactive

Req: Also `COCCCOc1cc(C[C@@H](C[C@H](N)[C@@H](O)C[C@H](C(=O)NCC(C)(C)C(N)=O)C(C)C)C(C)C)ccc1OC` ?
Resp: inactive

Req: Also `CCOC(=O)c1c(NC(=O)c2ccc(OC)cc2)sc2c(CN(C)C)c(O)ccc12` ?
Resp: inactive

Req: Also `Nc1c(C(=O)Nc2ccncc2)sc2nc3c(cc12)CCCCC3` ?
Resp: inactive

Req: Also `COc1cc2c(cc1O)[C@@]1(C)[C@H](c3ccccc3Br)OC(=O)N1CC2` ?
Resp: inactive

Req: Also CC(C)CCC[C@@H](C)C1CCC2C3CCC4=C/C(=N/OCCN(C)C)CC[C@]4(C)C3CC[C@@]21C (stereo not given in full) ?
Resp: inactive

###

test system: HT29 colon; experiment: NCI-60 one-dose screen, 48 h; settings: 10 µM unless noted
This is part of a sample that, as a whole, favours compounds with a hit. Of some 83,000 tested, about 20% had one in any assay. Active and inactive are the calls of the source. The calls were made as follows: active = growth percent below 10; inactive = the rest.
One label from this list, please: 1 (active), -1 (inactive)

Reference set (6 entries):
- O=C(/C=C\c1ccco1)/C=C/c1ccco1: -1
- CC(=O)c1c(Nc2ccc(F)c(F)c2F)[nH]c2c(F)cc(F)cc2c1=O: 1
- COc1cc2c(c(OC)c1OC)C(=O)CC(c1cccc(NC(=O)c3ccccc3Br)c1)O2 (configuration not stated): -1
- C=CC(=O)N1CCN(c2ccc3cccc(NC(=O)c4cnc(C)cn4)c3n2)CC1: -1
- Fc1ccc(COc2ccc(Nc3ncnc4sc5c(c34)CCCC5)cc2)cc1: -1
- CC1O[C@@H]2C[C@@](O)([C@H]1O)n1c3ccccc3c3c4c(c5c6ccccc6n2c5c31)C(=O)NC4=O (some centres not stated): -1

Here's the next entry for you.
Req: Recorded call for `Nc1ccc([N+](=O)[O-])cc1N=C/C=C/c1ccccc1` ?
Resp: -1

###

Entries and their growth
tested on: NCI-H23 lung; assay: NCI-60 one-dose screen, 48 h (100 = growth as untreated, 0 = no growth, -100 = all killed); settings: 10 µM unless noted
Compounds without any hit were thinned out: in the full panel of roughly 83,000, 20% have a hit.
Kindly provide the numeric value in % only, without the unit symbol.

// below: answered compounds
• Cc1ccc(C)c(-n2c(-c3ccc(Br)cc3)csc2=NC(=O)c2ccccc2F)c1 = 54.7
• O=C1/C(=C/c2cccc([N+](=O)[O-])c2)COc2ccc(O)cc21 = 89.3
• COc1ccc(C2=CN3CC=CCC3CC2=O)cc1 (centres undefined) = 106

Now for another entry.
Req: Please state recorded growth (tested on NCI-H23 lung) of CC1(C)O[C@H]2OC3CCC(=O)CC3(O)[C@H]2O1 (some centres undefined)
Resp: 99.2

###

tested on: NCI-H226 lung; assay: NCI-60 one-dose screen, 48 h; settings: 10 µM unless noted
This is part of a sample that, as a whole, favours compounds with a hit. Of some 83,000 tested, about 20% had one in any assay. Active and inactive are the calls of the source. How the source made its calls: active means growth percent below 10; inactive means the rest.
One label from this list, please: active, inactive

- CCOC(=O)C1=C(C)N=C2SC=C(c3ccccc3)N2[C@H]1c1cn[nH]c1-c1ccc(Cl)cc1: inactive
- CCCCCCCCn1ccc2cc(NC(=O)Cn3cc(CN4CCC(C)CC4)nn3)ccc21: inactive
- COc1ccc(NC(=O)c2ccc(C(=O)Nc3ccc(OC)cc3OC)cc2)c(OC)c1: inactive
- CC(C)(C)C(=O)/C=C/c1ccc([N+](=O)[O-])cc1: inactive

Req: Recorded call for C[Se]C(=O)CC1=C2C=C(F)C=CC2/C(=C\c2ccc(S(C)=O)cc2)C1C (configuration not stated) ?
Resp: active

Req: Also `COc1ccc2nc3ccccc3c(NCc3ccc(F)cc3)c2c1` ?
Resp: inactive

Req: Also `O=C1/C(=C/c2ccc(C(F)(F)F)cc2)COc2ccc(O)c(O)c21` ?
Resp: inactive

Req: Also `COc1cc(/C=C/c2cc(/C=C/c3ccc(O)c(OC)c3)n(C(=O)Nc3ccc(F)cc3)n2)ccc1O` ?
Resp: inactive

Req: Also COc1cc(C2=NN(C(C)=O)C(c3ccc(N(C)C)cc3)C2)cc(OC)c1OC (configuration not stated) ?
Resp: inactive

###

system: CCRF-CEM leukemia; assay: NCI-60 one-dose screen, 48 h (100 = growth as untreated, 0 = no growth, -100 = all killed); details: 10 µM unless noted
About 83,000 compounds went through this panel and 20% of them were active in at least one assay; those are over-represented in the sample as a whole.
Under this convention, yes (1) denotes growth strictly below 90% and no (0) denotes growth at or above 90%.

* COC(=O)/C=C1/SC(=Nc2cccc(Cl)c2)N(CCc2c[nH]c3ccc(O)cc23)C1=O | yes (1)
* COc1ccc(/C(C)=C(\c2ccc(OCCN3CCCCCC3)cc2)c2ccc(OC(=O)c3ccccc3)cc2)cc1 | yes (1)
* O=C1/C(=C/c2ccc(C(F)(F)F)cc2)COc2ccc(O)cc21 | yes (1)
* CCCCCCCC/C=C\CCCCCCCCOc1ccc(CC(=O)NCC[N+](C)(C)C)cc1 | yes (1)
* O=C(CN1C(=O)NC2NC(=O)NC21)N/N=C/c1ccc(Cl)cc1Cl (stereo not given) | no (0)

Here's the next entry for you.
Req: Below 90% on growth? Entry O=C(O)C1CN(c2cccc(Cl)c2)N(c2cccc(Cl)c2)C1=O (stereo not given)
Resp: no (0)
